Tested on: OCI-Ly1-R cells
Test method notes: Cell Titer-Glo viability assay, venetoclax-resistant OCI-Ly1-R cells
Type: cell-based, human
Experimental parameters: Homo sapiens; OCI-Ly1-R cells generated by chronic in vitro drug exposure
Measurement kind: IC50 (µM)

* CC1(C)CCC(CN2CCN(c3ccc(C(=O)NS(=O)(=O)c4ccc(NCC5CCOCC5)c([N+](=O)[O-])c4)c(Oc4cnc5[nH]ccc5c4)c3)CC2)=C(c2ccc(Cl)cc2)C1 [venetoclax] | 1
